Biological target: Angiotensin-converting enzyme (Oryctolagus cuniculus, UniProt P12822)
Sequence (P12822 whole entry): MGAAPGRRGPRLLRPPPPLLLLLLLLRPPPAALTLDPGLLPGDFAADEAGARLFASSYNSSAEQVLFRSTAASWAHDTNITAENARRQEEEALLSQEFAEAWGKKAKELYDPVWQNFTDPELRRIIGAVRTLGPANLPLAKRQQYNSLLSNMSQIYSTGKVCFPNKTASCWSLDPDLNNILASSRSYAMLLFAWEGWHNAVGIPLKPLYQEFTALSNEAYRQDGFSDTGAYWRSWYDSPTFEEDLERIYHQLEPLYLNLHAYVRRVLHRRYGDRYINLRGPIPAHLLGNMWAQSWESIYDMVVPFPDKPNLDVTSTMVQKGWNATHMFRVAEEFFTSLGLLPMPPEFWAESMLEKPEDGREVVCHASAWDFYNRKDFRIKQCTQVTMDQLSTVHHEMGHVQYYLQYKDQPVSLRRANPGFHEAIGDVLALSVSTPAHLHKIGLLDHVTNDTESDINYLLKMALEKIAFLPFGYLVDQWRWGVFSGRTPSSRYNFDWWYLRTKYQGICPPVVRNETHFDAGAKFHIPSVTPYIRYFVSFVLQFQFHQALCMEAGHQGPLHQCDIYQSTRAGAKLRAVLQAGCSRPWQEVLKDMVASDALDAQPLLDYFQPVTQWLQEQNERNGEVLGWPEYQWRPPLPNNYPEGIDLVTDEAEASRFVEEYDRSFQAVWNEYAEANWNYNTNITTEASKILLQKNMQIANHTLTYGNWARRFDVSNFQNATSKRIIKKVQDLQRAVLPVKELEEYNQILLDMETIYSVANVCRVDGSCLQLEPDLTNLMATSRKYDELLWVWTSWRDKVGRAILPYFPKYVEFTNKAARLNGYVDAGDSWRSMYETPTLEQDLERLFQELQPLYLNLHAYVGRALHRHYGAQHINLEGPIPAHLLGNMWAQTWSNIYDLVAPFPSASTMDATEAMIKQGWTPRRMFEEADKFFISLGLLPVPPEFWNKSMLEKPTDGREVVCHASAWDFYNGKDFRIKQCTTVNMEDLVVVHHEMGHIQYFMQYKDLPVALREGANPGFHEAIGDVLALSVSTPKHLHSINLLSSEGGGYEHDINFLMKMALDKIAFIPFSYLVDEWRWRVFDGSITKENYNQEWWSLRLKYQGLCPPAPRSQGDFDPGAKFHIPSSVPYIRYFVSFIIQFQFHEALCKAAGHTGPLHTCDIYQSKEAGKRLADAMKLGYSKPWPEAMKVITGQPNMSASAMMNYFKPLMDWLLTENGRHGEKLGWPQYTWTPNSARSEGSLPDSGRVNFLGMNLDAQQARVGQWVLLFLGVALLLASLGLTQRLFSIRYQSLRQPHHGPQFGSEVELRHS
measured_attribute: pIC50
Scale: negative log10 of molar concentration, which is what pIC50 denotes.

Solved cases (4 shown):
CCCCc1nc(Cl)c(C2CC(c3ccc(OC)cc3)=NN2C(C)=O)n1C (stereo not given) : 2.63
O=C(/C=C/c1ccc(O)c(O)c1)c1ccc(O)cc1O : 3.14
CCCCc1nc(Cl)c(C2CC(c3ccc4sc5ccccc5c4c3)=NN2C(C)=O)n1C (stereo not given) : 2.70
CCCCc1nc(Cl)c(C2CC(c3cc(OC)c(OC)c(OC)c3)=NN2C(C)=O)n1C (stereo not given) : 2.67

Query compound follows.
stdin: Provide measured pIC50 value, entry: `O=c1cc(-c2ccc(O)cc2)oc2cc(O)cc(O)c12`
stdout: 3.55
